A compilation of published Ki results with Alpha-2B adrenergic receptor (Homo sapiens).
Sequence (P18089 whole entry): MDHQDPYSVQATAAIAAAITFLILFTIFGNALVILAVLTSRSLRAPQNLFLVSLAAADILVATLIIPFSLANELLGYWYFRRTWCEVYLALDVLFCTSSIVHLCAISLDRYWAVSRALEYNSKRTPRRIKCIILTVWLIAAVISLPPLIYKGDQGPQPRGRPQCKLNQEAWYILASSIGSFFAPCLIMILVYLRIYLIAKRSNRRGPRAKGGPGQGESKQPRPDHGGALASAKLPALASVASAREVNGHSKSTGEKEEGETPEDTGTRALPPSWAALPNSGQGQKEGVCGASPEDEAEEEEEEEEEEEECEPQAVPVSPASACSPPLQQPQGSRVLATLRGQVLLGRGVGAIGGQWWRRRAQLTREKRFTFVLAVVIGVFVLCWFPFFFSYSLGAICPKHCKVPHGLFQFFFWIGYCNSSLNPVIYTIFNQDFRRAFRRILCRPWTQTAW

| COMPOUND | UNIT_SYMBOL | COMPARATOR | Ki |
| --- | --- | --- | --- |
| CCC[C@H]1C2CCC(C2)[C@H]1NC1=NCCO1 (stereo not given in full) | nM | = | 91.2 |
| COc1cc2c(cc1OC)C1=NOC(CN3CCN(Cc4ccc5ccccc5c4)CC3)C1CO2 (stereo not given) | nM | = | 49 |
| CC1CCC(Nc2ccccc2Cl)=N1 (stereo not given) | nM | > | 10000 |
| c1ccc(C2(c3ccccc3)COC(C3=NCCN3)CO2)cc1 (stereo not given) | nM | = | 2820 |
| CS(=O)(=O)c1ccccc1NCC1=NCCN1 | nM | > | 6310 |
| COc1cc2c(cc1OC)CN(Cc1ccc(OC)c3oc(C(=O)NCC(C)(C)N)cc13)CC2 | nM | = | 1540 |
| CN(CCc1ccccn1)[C@H]1C2C3CC4C2C(=O)C2C4C3C21 (stereo not given in full) | nM | > | 10000 |
| CC(Oc1ccccc1-c1cccs1)C1=NCCN1 (stereo not given) | nM | = | 214 |
| O=C(NCCCCCCCCCCCCNC(=O)[C@@H]1[C@H]2C[C@H]3c4[nH]c5ccccc5c4CCN3C[C@@H]2CC[C@@H]1O)[C@@H]1[C@H]2C[C@H]3c4[nH]c5ccccc5c4CCN3C[C@@H]2CC[C@@H]1O | nM | = | 18.5 |
| CC(Oc1ccccc1-c1ccsc1)C1=NCCN1 (stereo not given) | nM | = | 417 |

----------
From various publications: Ki for Alpha-2B adrenergic receptor (Homo sapiens).

| COMPOUND | Ki |
| --- | --- |
| C[C@]12CC1(c1c[nH]cn1)Cc1ccccc12 (single isomer, unassigned) | 0.912 nM |
| O=C(NCCCCCCCCCNC(=O)[C@@H]1[C@H]2C[C@H]3c4[nH]c5ccccc5c4CCN3C[C@@H]2CC[C@@H]1O)[C@@H]1[C@H]2C[C@H]3c4[nH]c5ccccc5c4CCN3C[C@@H]2CC[C@@H]1O | 44.7 nM |
| CSc1ccc(F)cc1NCC1=NCCN1 | 331 nM |
| c1cc2c(cc1CN[C@H]1C3C4CC5C6C4CC3C6C51)OCO2 (some centres not stated) | 3260 nM |
| Cc1ccc(N(NC2=NCCN2)c2cccc(O)c2)cc1 | 18 nM |
| COc1ccccc1N1CCN(C[C@H]2CN=C3c4ccccc4NC(=O)N32)CC1 | 116 nM |
| CCN(CC)CCCC(C)Nc1cnc(C(=O)Nc2cc(F)cc3cccnc23)cn1 (configuration not stated) | 2010 nM |
| c1ccc2c(c1)CCCC2NC1=NCCCO1 (configuration not stated) | 25.1 nM |
| CC(Oc1ccccc1-c1cccc(O)c1)C1=NCCN1 (configuration not stated) | 355 nM |
| COc1cc(CN[C@H]2C3C4CC5C6C4CC3C6C52)cc(OC)c1OC (some centres not stated) | 665 nM |
| CC1=C(C(=O)NCCCN2CCC(c3ccc(F)cc3C#N)CC2)[C@@H](c2ccc(F)c(F)c2)CC(=O)N1 | 145 nM |
| O=C(O)c1ccc(C#Cc2ccc3c(c2)C=C([N+](=O)[O-])C(C(F)(F)F)O3)cc1 (configuration not stated) | 1000 nM |
| CCC[C@H]1CCCCC1NC1=NCCO1 (some centres not stated) | 5.89 nM |
| c1ccc(CCC[C@H]2CCCC[C@@H]2NC2=NCCO2)cc1 | 32.4 nM |
| Fc1ccc2c(c1)CC(CC1CN=CN1)C2 (configuration not stated) | 23 nM |
| C1CCCC(NC2=NCCO2)CC1 | 9.77 nM |
| CC(Oc1ccccc1-c1ccccc1[N+](=O)[O-])C1=NCCN1 (configuration not stated) | 1550 nM |
| COc1cc2c(cc1OC)CN(Cc1ccc(OC)c3oc(-c4ccccc4F)cc13)CC2 | 299 nM |
| c1ccc2c(c1)C[C@]1(c3c[nH]cn3)C[C@H]21 (stereo in doubt; (-)-1) | 0.11 nM |
| Clc1ccccc1NC1=NCCC1 | 933 nM |
| CC(Oc1ccccc1-c1cccc(F)c1)C1=NCCN1 (configuration not stated) | 269 nM |
| COc1cc2c(cc1OC)CN(Cc1ccc(OC)c3oc(-c4ccco4)cc13)CC2 | 160 nM |
| C[C@H]1c2ccccc2[C@H]2C[C@]21c1cnc[nH]1 (relative stereo) | 0.692 nM |
| CS(=O)(=O)c1ccc(C(F)(F)F)cc1NCC1=NCCN1 | > 6310 nM |
| C[C@H]1[C@@H]2c3ccccc3C[C@]12c1c[nH]cn1 | 0.204 nM |
| CSc1cc(F)ccc1NCC1=NCCN1 | 851 nM |
| CCC1(c2c[nH]cn2)Cc2ccc(F)cc2C1 (configuration not stated) | 6.76 nM |
| CC1CCC(=Nc2ccc(I)cc2Cl)N1 (configuration not stated) | 4170 nM |
| COc1cc2c(cc1OC)C1=NO[C@@H](CN3CCN(C/C(C)=C/c4ccccc4)CC3)[C@@H]1CO2 (stereo in doubt; (-)15f) | 15 nM |
| COc1cc2c(cc1OC)CN(Cc1ccc(OC)c3oc(-c4cccc(C(=O)NCCN(C)C)c4)cc13)CC2 | 584 nM |
| CO/C(O)=C1\C(C)=NC(C)=C(C(=O)NCCCN2CCC(c3ccccc3)CC2)C1c1ccc([N+](=O)[O-])cc1 (configuration not stated) | 219 nM |
| CO/C(O)=C1\C(C)=NC(C)=C(C(=O)NCCCN2CCC(c3ccccc3)(c3ccccc3)CC2)C1c1ccc(OC)cc1 (configuration not stated) | 1510 nM |
| CO/C(O)=C1\C(C)=NC(C)=C(C(=O)NCCCN2CCC(c3ccccc3)(c3ccccc3)CC2)C1c1ccc2c(c1)OCO2 (configuration not stated) | 871 nM |
| Cc1ccccc1-c1ccccc1OC(C)C1=NCCN1 (configuration not stated) | 832 nM |
| c1ccc(C[C@H]2CCCC[C@@H]2NC2=NCCO2)cc1 | 40.7 nM |
| CC(Oc1ccccc1-c1ccncc1)C1=NCCN1 (configuration not stated) | 2690 nM |
| COc1cccc(N(NC2=NCCN2)c2ccc(C)cc2)c1 | 7.3 nM |
